List of IC50 values.
# assay-explanation: Inhibition of PDGFR (unknown origin) incubated for 30 mins by enzyme immunoassay
# Set-up: species or system Homo sapiens
Output spec: scalar in µM, unitless text.

So, COc1cccc(-n2cc(NC(=O)c3cccc(NS(=O)(=O)c4ccc(Cl)cc4)c3)cn2)c1 ? Its IC50 was 24.4

Input COc1ccc(-n2cc(NC(=O)c3cccc(NS(=O)(=O)c4ccc(Cl)cc4)c3)cn2)cc1 . Output IC50: 21.7

Short answer for Cc1ccc(-n2cc(NC(=O)c3cccc(NS(=O)(=O)c4ccc(Cl)cc4)c3)cn2)cc1 : IC50 was 14.1

Summary for this molecule, O=C(Nc1cnn(-c2ccccc2)c1)c1ccc(NS(=O)(=O)c2ccc(Cl)cc2)cc1 : IC50 is 19.4

We now examine a further molecule.
Looking up Cc1ccc(-n2cc(NC(=O)c3ccc(NS(=O)(=O)c4ccccc4)cc3)cn2)cc1 , I found its IC50 recorded as 26

----------
# System: HeLa
# assay-explanation: Antiproliferative activity against human HeLa cells assessed as inhibition of cell proliferation incubated for 48 hrs by MTT assay
# Assay type: functional, cell-based
Listing of entries alongside the reported pIC50.
# pIC50 is unitless: minus log10 of the molar concentration; print number only

Answered cases to consult:
Noted pIC50 for Cc1ccc(-n2cc(NC(=O)c3ccc(NS(=O)(=O)c4ccc(Cl)cc4)cc3)cn2)cc1 , tested on HeLa: 5.10

Param item: COc1ccc(-n2cc(NC(=O)c3cccc(NS(=O)(=O)c4ccccc4)c3)cn2)cc1 ; param system: HeLa; output pIC50: 4.37

Known value: HeLa pIC50 of the compound COc1cccc(-n2cc(NC(=O)c3ccc(NS(=O)(=O)c4ccccc4)cc3)cn2)c1 equals 4.18

With HeLa as the test system, Cn1cc(NC(=O)c2cccc(NS(=O)(=O)c3ccc(Cl)cc3)c2)cn1 showed pIC50 of 4.20

Entry O=C(Nc1cnn(-c2ccccc2)c1)c1ccc(NS(=O)(=O)c2ccc(Cl)cc2)cc1 : pIC50 on HeLa = 4.73

I looked up O=C(Nc1cnn(-c2ccccc2)c1)c1ccc(NS(=O)(=O)c2ccccc2)cc1 and its pIC50 for HeLa was 4.43

Others:
Sample Cc1ccc(-n2cc(NC(=O)c3ccc(NS(=O)(=O)c4ccccc4)cc3)cn2)cc1 , system: HeLa. Its pIC50 is 4.55

COc1cc2/c(=N/c3ccc(Br)cc3F)nc[nH]c2cc1OCC1CCN(C)CC1 on HeLa gives pIC50 = 5.18

pIC50 of COc1ccc(-n2cc(NC(=O)c3cccc(NS(=O)(=O)c4ccc(Cl)cc4)c3)cn2)cc1 , assay on HeLa, is 4.70

----------
Consider compounds characterized by their pIC50 with UniProt P35968.
Sequence (P35968 whole entry): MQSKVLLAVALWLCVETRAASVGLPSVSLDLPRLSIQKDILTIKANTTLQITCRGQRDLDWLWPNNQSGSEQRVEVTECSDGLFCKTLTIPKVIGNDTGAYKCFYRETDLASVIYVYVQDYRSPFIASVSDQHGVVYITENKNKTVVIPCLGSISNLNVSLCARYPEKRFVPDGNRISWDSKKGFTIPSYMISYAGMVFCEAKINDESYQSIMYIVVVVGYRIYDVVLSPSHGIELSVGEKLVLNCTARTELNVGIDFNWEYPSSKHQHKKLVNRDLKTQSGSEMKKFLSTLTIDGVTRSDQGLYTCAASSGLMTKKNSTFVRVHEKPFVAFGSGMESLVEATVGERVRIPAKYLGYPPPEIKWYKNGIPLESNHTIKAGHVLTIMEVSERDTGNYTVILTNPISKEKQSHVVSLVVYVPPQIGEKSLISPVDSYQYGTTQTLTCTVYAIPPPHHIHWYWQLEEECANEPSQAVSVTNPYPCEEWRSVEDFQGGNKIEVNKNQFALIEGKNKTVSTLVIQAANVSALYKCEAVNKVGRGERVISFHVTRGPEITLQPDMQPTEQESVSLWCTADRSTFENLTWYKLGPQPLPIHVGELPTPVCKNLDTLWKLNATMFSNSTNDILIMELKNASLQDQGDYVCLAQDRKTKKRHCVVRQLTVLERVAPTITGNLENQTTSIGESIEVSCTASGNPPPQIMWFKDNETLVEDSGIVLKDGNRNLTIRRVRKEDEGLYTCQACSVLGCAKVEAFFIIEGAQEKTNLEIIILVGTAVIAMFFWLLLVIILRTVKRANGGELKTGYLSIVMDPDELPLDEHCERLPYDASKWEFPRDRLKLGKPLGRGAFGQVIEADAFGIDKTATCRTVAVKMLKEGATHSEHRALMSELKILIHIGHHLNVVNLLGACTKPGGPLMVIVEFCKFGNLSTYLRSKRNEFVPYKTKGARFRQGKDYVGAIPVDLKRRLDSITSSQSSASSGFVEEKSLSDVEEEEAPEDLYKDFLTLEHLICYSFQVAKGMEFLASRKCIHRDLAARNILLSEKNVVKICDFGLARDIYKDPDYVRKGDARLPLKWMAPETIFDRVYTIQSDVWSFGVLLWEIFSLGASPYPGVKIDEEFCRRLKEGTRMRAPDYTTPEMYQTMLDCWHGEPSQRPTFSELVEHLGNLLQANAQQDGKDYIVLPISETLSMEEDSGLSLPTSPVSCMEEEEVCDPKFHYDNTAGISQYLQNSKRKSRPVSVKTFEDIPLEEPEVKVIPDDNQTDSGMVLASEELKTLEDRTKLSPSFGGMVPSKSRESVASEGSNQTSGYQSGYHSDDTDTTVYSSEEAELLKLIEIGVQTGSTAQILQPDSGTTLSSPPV
Remember the convention: pIC50 equals -log10 of concentration in molar.

# example entries with known answers
Note to self: pIC50 of COc1ccc(-n2cc(NC(=O)c3cccc(NS(=O)(=O)c4ccccc4)c3)cn2)cc1 with UniProt P35968 was 4.98

// assay UniProt P35968, entry COc1ccc(-n2cc(NC(=O)c3cccc(NS(=O)(=O)c4ccc(Cl)cc4)c3)cn2)cc1 , pIC50 value = 5.29

Tested on UniProt P35968, the item O=C(Nc1cnn(-c2ccccc2)c1)c1ccc(NS(=O)(=O)c2ccc(Cl)cc2)cc1 showed pIC50 equal to 5.43

Continuing:
pIC50 value, target or system UniProt P35968, for Cc1ccc(-n2cc(NC(=O)c3cccc(NS(=O)(=O)c4ccccc4)c3)cn2)cc1 : 6.24

Record Cn1cc(NC(=O)c2cccc(NS(=O)(=O)c3ccccc3)c2)cn1 ; system UniProt P35968; pIC50 = 4.69

Sample COc1cccc(-n2cc(NC(=O)c3cccc(NS(=O)(=O)c4ccccc4)c3)cn2)c1 , system: UniProt P35968. Its pIC50 is 5.04

Readout pIC50 for Cn1cc(NC(=O)c2ccc(NS(=O)(=O)c3ccccc3)cc2)cn1 , test system UniProt P35968, was 4.60

Reading of pIC50 for COc1ccc(-n2cc(NC(=O)c3ccc(NS(=O)(=O)c4ccccc4)cc3)cn2)cc1 with UniProt P35968: 4.84

----------
Recorded pIC50, one value per entry.
# Test system: HepG2
# assay-explanation: Antiproliferative activity against human HepG2 cells assessed as inhibition of cell proliferation incubated for 48 hrs by MTT assay
# Type: functional, cell-based
# measurement-parameters: HepG2, 48 h
Just the number, please; pIC50 means minus log10 of the concentration in mol/L.

Consider the reported pIC50 for these compounds:
For COc1ccc(-n2cc(NC(=O)c3cccc(NS(=O)(=O)c4ccc(Cl)cc4)c3)cn2)cc1 the compound record lists pIC50 as 4.82

Entry under test: Cc1ccc(-n2cc(NC(=O)c3ccc(NS(=O)(=O)c4ccccc4)cc3)cn2)cc1 . Its pIC50 was 4.74

Looking up COc1cc2/c(=N/c3ccc(Br)cc3F)nc[nH]c2cc1OCC1CCN(C)CC1 [VANDETANIB] , I found its pIC50 recorded as 5.61

Measured pIC50, Cn1cc(NC(=O)c2cccc(NS(=O)(=O)c3ccccc3)c2)cn1 : 4.07

New cases:
Please fill in: pIC50 reported for Cc1ccc(-n2cc(NC(=O)c3cccc(NS(=O)(=O)c4ccc(Cl)cc4)c3)cn2)cc1 = 5.61
